assay: NCI Yeast Anticancer Drug Screen. Data for the mec2-1 strain (AID 157); conditions: S. cerevisiae mec2-1 strain, at 50.0 µM, active compounds read high
About 79,000 compounds went through this panel and 15% of them were active in at least one assay; those are over-represented in the sample as a whole.
Label rule, in plain words: growth inhibition of 30% and up is 1, under 30% is 0.

Examples with answers:
{"Compound": "Cc1[nH]c2c(C)cccc2c1C1Cc2ccccc2N1 (configuration not stated)", "Category Label": 1}
{"Compound": "Cc1c(C[n+]2cc3ccccc3cc2/C=N/O)ccc2ccccc12", "Category Label": 0}

Please indicate if the recorded growth inhibition for O=c1ccn(C2OC(COC(c3ccccc3)(c3ccccc3)c3ccccc3)C(O)C2O)c(=O)[nH]1 (configuration not stated) meets or exceeds 30%.
1

Please indicate if the recorded growth inhibition for `OCCOc1ccc2ccccc2c1-c1c(OCCOc2ccc3ccccc3c2-c2c(OCCO)ccc3ccccc23)ccc2ccccc12` meets or exceeds 30%.
0

Please indicate if the recorded growth inhibition for `O=C1CSC(=S)N1c1ccc(I)cc1` meets or exceeds 30%.
1

Please indicate if the recorded growth inhibition for Cc1c(N)nc(C2CC(=O)N2CC(N)C(N)=O)nc1C(=O)NC(C(=O)NC(C)C(O)C(C)C(=O)NC(C(=O)NCCc1nc(-c2nc(C(=O)NCCNCC(C)O)cs2)cs1)C(C)O)C(OC1OC(CO)C(O)C(O)C1OC1OC(CO)C(O)C(OC(N)=O)C1O)c1cnc[nH]1 (configuration not stated) meets or exceeds 30%.
1
